// provenance: PubChem BioAssay AID2060621

System: 324938-238-R-J1-PDC complex spheroids viability;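 also: viability read after seven days of drug exposure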
TEST_SUMMARY: Anticancer human tumor 324938-238-R-J1-PDC patient-derived bladder carcinoma cell line growth inhibition [CLK]
CONDITION_DESCRIPTION: curve of first compound; second compound 0.0316 µM
Recorded pIC50 for the following compounds
As a rule, pIC50 stands for the negative log10 of the concentration, concentration in M.

COMPOUND	pIC50
COc1ccc([C@@H](O)c2cc(-c3ncnc4cc(N5CCOCC5)ccc34)c(F)cc2Cl)nn1 + CN1CCN(c2cc(C(=O)Nc3cc4cc(-c5cnn(C)c5)ccc4cn3)ccn2)CC1	5.70
O=c1[nH]cc(F)c(=O)[nH]1 + CNC(=O)c1ccc(Nc2nc(OC3CCCC3)c3c(-c4ccc5nc(C)oc5c4)c[nH]c3n2)c(OC)c1	6.59
O=c1[nH]cc(F)c(=O)[nH]1 + CN1CCN(c2cc(C(=O)Nc3cc4cc(-c5cnn(C)c5)ccc4cn3)ccn2)CC1	6.63

Considering COc1ccc([C@@H](O)c2cc(-c3ncnc4cc(N5CCOCC5)ccc34)c(F)cc2Cl)nn1 + CNC(=O)c1ccc(Nc2nc(OC3CCCC3)c3c(-c4ccc5nc(C)oc5c4)c[nH]c3n2)c(OC)c1 , its pIC50 with 324938-238-R-J1-PDC complex spheroids viability was recorded as 5.42

Considering CC1(C)CCC(CN2CCN(c3ccc(C(=O)NS(=O)(=O)c4ccc(NCC5CCOCC5)c([N+](=O)[O-])c4)c(Oc4cnc5[nH]ccc5c4)c3)CC2)=C(c2ccc(Cl)cc2)C1 + CN1CCN(c2cc(C(=O)Nc3cc4cc(-c5cnn(C)c5)ccc4cn3)ccn2)CC1 , its pIC50 with 324938-238-R-J1-PDC complex spheroids viability was recorded as 5.17

Considering COC1C=CCC(C)C(C)S(=O)(=O)NC(=O)c2ccc3c(c2)N(CC2CCC21)CC1(CCCc2cc(Cl)ccc21)CO3 (stereo not given) + CNC(=O)c1ccc(Nc2nc(OC3CCCC3)c3c(-c4ccc5nc(C)oc5c4)c[nH]c3n2)c(OC)c1 , its pIC50 with 324938-238-R-J1-PDC complex spheroids viability was recorded as 6.68

Considering COc1c(OCCCN2CCOCC2)ccc2c3n(c(=NC(=O)c4cnc(N)nc4)nc12)CCN3 + CNC(=O)c1ccc(Nc2nc(OC3CCCC3)c3c(-c4ccc5nc(C)oc5c4)c[nH]c3n2)c(OC)c1 , its pIC50 with 324938-238-R-J1-PDC complex spheroids viability was recorded as 7.67
